Test system: Radical scavenging activity
test-summary: Antioxidant activity assessed as decrease in DPPH free radical level after 20 min by DPPH assay method
Format: functional
Design: concentration or dose not given beside the values
Quick rule: inhibition of at least 80% means T, below that means F.

Example entries and their recorded answers appear below.
structure-notation: O=C(CC(=O)c1ccc(O[C@@H]2O[C@H](CO)[C@@H](O)[C@H](O)[C@H]2O)cc1O)c1cccs1
study-target: Radical scavenging activity
group: F
--
structure-notation: O=C(CC(=O)c1cc(Cl)c(O[C@@H]2O[C@H](CO)[C@@H](O)[C@H](O)[C@H]2O)cc1O)c1ccco1
study-target: Radical scavenging activity
group: F
--
structure-notation: O=C(CC(=O)c1ccc(O[C@@H]2O[C@H](CO)[C@@H](O)[C@H](O)[C@H]2O)cc1O)c1ccco1
study-target: Radical scavenging activity
group: T
--
structure-notation: O=C1O[C@H]([C@@H](O)CO)C(O)=C1O
study-target: Radical scavenging activity
group: T
--
structure-notation: O=C(CC(=O)c1ccc(O[C@@H]2O[C@H](CO)[C@@H](O)[C@H](O)[C@H]2O)cc1O)c1cccnc1
study-target: Radical scavenging activity
group: F

// switching to the query compound
Reported inhibition at or above 80%? "O=C(CC(=O)c1cc(Cl)c(O[C@@H]2O[C@H](CO)[C@@H](O)[C@H](O)[C@H]2O)cc1O)c1ccccn1"
T

###

Tested on: Bacillus subtilis
test-summary: Antibacterial activity against Bacillus subtilis ATCC 6633 after 24 hr by spectrophotometric method
Assay type: functional
conditions: ATCC 6633, 24 h
Quick reference: MIC of the listed items.

Param item = "O=C(CC(=O)c1cc(Cl)c(O[C@@H]2O[C@H](CO)[C@@H](O)[C@H](O)[C@H]2O)cc1O)c1cccnc1" ; retrieve measured MIC.
300 µg/mL

Let us now turn to "O=C(CC(=O)c1cc(Cl)c(O[C@@H]2O[C@H](CO)[C@@H](O)[C@H](O)[C@H]2O)cc1O)c1ccccn1"
1250 µg/mL

Let us now turn to "O=C(CC(=O)c1ccc(O[C@@H]2O[C@H](CO)[C@@H](O)[C@H](O)[C@H]2O)cc1O)c1cccnc1"
625 µg/mL

Let us now turn to "O=C(CC(=O)c1ccc(O[C@@H]2O[C@H](CO)[C@@H](O)[C@H](O)[C@H]2O)cc1O)c1ccco1"
150 µg/mL

Let us now turn to "O=C(CC(=O)c1ccc(O[C@@H]2O[C@H](CO)[C@@H](O)[C@H](O)[C@H]2O)cc1O)c1ccccn1"
300 µg/mL

Let us now turn to CC1(C)S[C@@H]2[C@H](NC(=O)[C@H](N)c3ccccc3)C(=O)N2[C@H]1C(=O)O [AMPICILLIN]
5 µg/mL

Let us now turn to "O=C(CC(=O)c1ccc(O[C@@H]2O[C@H](CO)[C@@H](O)[C@H](O)[C@H]2O)cc1O)c1cccs1"
150 µg/mL

Let us now turn to "O=C(CC(=O)c1cc(Cl)c(O[C@@H]2O[C@H](CO)[C@@H](O)[C@H](O)[C@H]2O)cc1O)c1cccs1"
625 µg/mL

Let us now turn to "O=C(CC(=O)c1cc(Cl)c(O[C@@H]2O[C@H](CO)[C@@H](O)[C@H](O)[C@H]2O)cc1O)c1ccco1"
300 µg/mL
